# system_tested: T1, Y120A-SSB-2ΔSB (murine SSB-2 residues 12-224 with tyrosine 120 mutated to alanine) (mouse, UniProt O88838 12-224)
# T1 construct: also called SSB-2-Y120A
# T1 chain: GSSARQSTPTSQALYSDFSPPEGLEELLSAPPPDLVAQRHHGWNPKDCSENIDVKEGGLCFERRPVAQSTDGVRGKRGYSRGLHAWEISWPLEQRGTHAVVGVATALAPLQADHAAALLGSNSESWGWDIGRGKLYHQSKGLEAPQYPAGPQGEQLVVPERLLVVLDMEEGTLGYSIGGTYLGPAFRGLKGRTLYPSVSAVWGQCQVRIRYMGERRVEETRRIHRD
# protocol_description: ITC, 25 C, wild-type peptide with Y120A-SSB-2ΔSB
measured_property: Kd (µM)
# number only, unit µM dropped from output

## Input // fetch Kd given entry Ac-KEEKDINNNVKKT-NH2 (Synthetic peptide (GL Biochem); also called wild-type iNOS peptide; iNOS peptide) [iNOS N-terminal peptide I, wild-type, Ac-KEEKDINNNVKKT-NH2]
## Output 76.3

These entries and their values trace back to patent US20120308570A1.
